# drug sensitivity score per record follows
Test system: normal primary NK cells, pool 1 (3 donors) (IL-2 2.5 ng/mL)
experimentalProtocol: drug sensitivity score (DSS) (DSS units); higher = more sensitive; extreme values may be limits of the assay
reportedConditions: 72 h
Form rule: numeric answer, no unit written next to it.

Use the examples below as a reference point.
>  <compound>
C[C@]12O[C@H](C[C@]1(O)CO)n1c3ccccc3c3c4c(c5c6ccccc6n2c5c31)CNC4=O [Lestaurtinib] (max concentration tested 1000 nM)

>  <drug sensitivity score>
15.6

$$$$
>  <compound>
CN[C@@H](C)C(=O)N[C@H]1CN(C(=O)CC(C)C)CC[C@H]2CC[C@@H](C(=O)NC(c3ccccc3)c3ccccc3)N2C1=O [AT-406] (max concentration tested 10000 nM)

>  <drug sensitivity score>
7.33

$$$$
>  <compound>
COc1cc(OC)c(/C=C/S(=O)(=O)Cc2ccc(OC)c(NCC(=O)O)c2)c(OC)c1 [Rigosertib] (max concentration tested 10000 nM)

>  <drug sensitivity score>
4.54

$$$$

Can you look up the measured drug sensitivity score of CNC(=O)c1ccc2cc([C@@]3(O)CCn4cncc43)ccc2c1 [Orteronel] (max concentration tested 10000 nM) for me?
0

Which drug sensitivity score value belongs to CO[C@H]1C[C@@H]2CC[C@@H](C)[C@@](O)(O2)C(=O)C(=O)N2CCCC[C@H]2C(=O)O[C@H]([C@H](C)C[C@@H]2CC[C@@H](OCCO)[C@H](OC)C2)CC(=O)[C@H](C)/C=C(\C)[C@@H](O)[C@@H](OC)C(=O)[C@H](C)C[C@H](C)/C=C/C=C/C=C/1C [Everolimus] (max concentration tested 100 nM) ?
0

Param item = COC[C@H](NC(=O)c1cnc(C)s1)C(=O)N[C@@H](COC)C(=O)N[C@@H](Cc1ccccc1)C(=O)[C@@]1(C)CO1 [Oprozomib] (max concentration tested 2500 nM) ; retrieve measured drug sensitivity score.
22
